- tested.target: aggregated MBP-HTT(1-89)Q46-His(6×) (Exonl-Q46) protein (Q46 protein aggregates) (Homo sapiens (Human), UniProt P42858, INS38QQQQQQQQQQQQQQQQQQQQQQQQQ)
- Sequence (P42858 other isoform, or with tags, fused parts or gaps, stated change not applied): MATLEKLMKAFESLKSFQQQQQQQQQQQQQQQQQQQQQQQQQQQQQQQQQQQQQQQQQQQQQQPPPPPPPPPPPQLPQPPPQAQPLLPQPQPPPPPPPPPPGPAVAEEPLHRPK
- measurement.notes: Q46 Radioligand Binding Assay
- reported.conditions: displacement of 0.3 nM [3H3-methyl]-5-((5-methoxypyridin-2-yl)methoxy)-2-(pyrazin-2-yl)benzo[d]oxazole from 1 μM Exonl-Q46 aggregates; method calls the values IC50; read-out: Q46_RBA EC50_
pEC50: −log10 of the molar value.
pEC50 vs 7: at or above is YES, below is NO.

Task: Does the molecule COc1ccc(COc2ccc3c(c2)CN(c2cccc(OC)n2)CC3)nc1 [Example 8.2] have recorded pEC50 that is 7 or more?
Result: YES

Task: Could you tell me if the measured pEC50 of COc1ccc(COc2ccc3c(c2)CN(c2ccc(OC)nc2)C(=O)C3)nc1 [Example 10] reaches 7 or more?
Result: NO

Sourced from patent US11992535B2
